Biological target: hGYS1 enzyme (recombinant hGYS1/GN1 protein) (Homo sapiens (Human))
Test: GYS1 coupled enzyme assay (PK/LDH)
Conditions: hGYS1/GN1 50 nM, UDP-Glucose 0.8 mM, G6P 1 mM; geometric mean of at least 2 runs
pIC50: −log10 of the molar value.
pIC50 below 7 gives class 0; pIC50 at or above it gives class 1.

Answered cases to consult:
| compound | assigned.label |
| --- | --- |
| CC(C)c1ccc([C@@H](NC(=O)[C@@H]2C[C@@H](F)CN2C(=O)c2ccc3c(c2)NC(=O)CC3)c2ccccc2)cc1 | class 0 |
| CC(=O)N(C)C(C)C(=O)N1C[C@H](F)C[C@H]1C(=O)N[C@@H](c1ccccc1)c1ccc(C(C)C)cc1 (some centres unmarked) | class 0 |
| CC(C)c1ccc([C@@H](NC(=O)[C@@H]2C[C@@H](F)CN2C(=O)Cc2cccnc2)c2ccccc2)cc1 | class 1 |
| CCn1cc(CC(=O)N2C[C@H](F)C[C@H]2C(=O)N[C@@H](c2ccccc2)c2ccc(C3CC3)c(F)n2)ncc1=O | class 1 |
| Cc1ccn(CC(=O)N2C[C@H](F)C[C@H]2C(=O)N[C@@H](c2ccccc2)c2ccc(C(C)C)cc2)n1 | class 1 |
| CC(=O)N1CCC[C@@H]1CC(=O)N1C[C@H](F)C[C@H]1C(=O)N[C@@H](c1ccccc1)c1ccc(C(C)C)cc1 | class 0 |
| CC(=O)NCC(=O)N1CCC[C@H]1C(=O)NC(c1ccc(C2CC2)c(F)c1)c1ccn[nH]1 (single isomer, unassigned) | class 0 |
| CC(=O)N1CC2(CC(C(=O)N3C[C@H](F)C[C@H]3C(=O)N[C@@H](c3ccccc3)c3ccc(C(C)C)cc3)CO2)C1 (some centres unmarked) | class 0 |

Input: Confirm if pIC50 reported for the compound `CCN(CC)c1cnnn1CC(=O)N1C[C@H](F)C[C@H]1C(=O)N[C@@H](c1ccccc1)c1ccc(C2CC2)c(F)n1` is 7 or above.
Output: class 1

Input: What do we get for `O=C(N[C@@H](c1ccccc1)c1ccc(C2CC(F)(F)C2)c(F)n1)[C@@H]1C[C@@H](F)CN1C(=O)Cc1nc(C(F)(F)F)co1` ?
Output: class 1

Input: What do we get for CC(C)c1ccc(C(NC(=O)[C@@H]2C[C@@H](F)CN2C(=O)Cc2cnn[nH]2)c2ccccc2)cc1C(F)(F)F (single isomer, unassigned) ?
Output: class 0

----------
Exercise: for every item that follows, state its recorded IC50.
Biological target: hGYS1 enzyme (recombinant hGYS1/GN1 protein) (Homo sapiens (Human), UniProt P13807)
Sequence (P13807 whole entry): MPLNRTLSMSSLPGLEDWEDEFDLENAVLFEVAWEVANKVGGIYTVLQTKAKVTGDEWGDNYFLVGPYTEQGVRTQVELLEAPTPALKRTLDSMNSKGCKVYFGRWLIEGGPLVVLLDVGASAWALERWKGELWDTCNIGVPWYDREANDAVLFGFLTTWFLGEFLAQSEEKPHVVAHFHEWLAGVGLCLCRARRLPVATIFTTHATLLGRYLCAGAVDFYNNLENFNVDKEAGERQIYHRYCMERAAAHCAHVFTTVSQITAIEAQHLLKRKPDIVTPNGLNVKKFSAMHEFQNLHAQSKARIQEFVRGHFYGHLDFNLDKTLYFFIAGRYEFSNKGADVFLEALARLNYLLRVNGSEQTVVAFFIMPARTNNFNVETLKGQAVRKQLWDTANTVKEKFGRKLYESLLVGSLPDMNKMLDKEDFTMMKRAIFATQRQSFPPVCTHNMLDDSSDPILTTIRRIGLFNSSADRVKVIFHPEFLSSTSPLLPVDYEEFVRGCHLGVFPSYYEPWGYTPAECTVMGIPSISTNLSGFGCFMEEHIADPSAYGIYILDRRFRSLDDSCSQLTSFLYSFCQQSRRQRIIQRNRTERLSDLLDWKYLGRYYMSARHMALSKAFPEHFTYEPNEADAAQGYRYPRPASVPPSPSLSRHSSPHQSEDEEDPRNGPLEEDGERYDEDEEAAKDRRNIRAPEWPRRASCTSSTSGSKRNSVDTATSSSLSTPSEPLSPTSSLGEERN
Sequence (P46976 whole entry partner): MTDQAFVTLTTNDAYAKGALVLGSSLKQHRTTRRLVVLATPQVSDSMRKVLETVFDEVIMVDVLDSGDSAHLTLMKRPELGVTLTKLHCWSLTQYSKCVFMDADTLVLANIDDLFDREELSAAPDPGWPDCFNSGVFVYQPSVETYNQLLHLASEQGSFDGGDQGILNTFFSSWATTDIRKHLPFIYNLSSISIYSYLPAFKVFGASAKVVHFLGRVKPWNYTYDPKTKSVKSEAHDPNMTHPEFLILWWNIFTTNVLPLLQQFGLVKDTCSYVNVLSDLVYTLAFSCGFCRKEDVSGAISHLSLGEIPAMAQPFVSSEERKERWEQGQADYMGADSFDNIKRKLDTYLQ
Experiment: GYS1 coupled enzyme assay (PK/LDH)
Conditions: hGYS1/GN1 50 nM, UDP-Glucose 0.8 mM, G6P 1 mM; geometric mean of at least 2 runs
One number for each entry, in nM.

Previously resolved entries follow.
| compound | units.text | test.result |
| --- | --- | --- |
| CN1CCN(C(=O)OCC(=O)N2C[C@H](F)C[C@H]2C(=O)N[C@@H](c2ccccc2)c2ccc(C3(C)CC3)c(F)c2)CC1 [Compound 583] | nM | 105 |
| Cn1c(CC(=O)N2C[C@H](F)C[C@H]2C(=O)N[C@@H](c2ccccc2)c2ccc(C3(C)CC3)c(F)n2)cc2ccccc21 [Compound 591] | nM | 32 |
| Cc1ccc(CCC(=O)N2C[C@H](F)C[C@H]2C(=O)N[C@@H](c2ccccc2)c2ccc(C(C)C)cc2)c(C)n1 [Compound 110] | nM | 33 |
| CC(=O)N1C2CCC1CC(C(=O)N1C[C@H](F)C[C@H]1C(=O)N[C@@H](c1ccccc1)c1ccc(C(C)C)cc1)C2 (stereo partly drawn) [Compound 175] | nM | 582 |
| CC(C)c1ccc(C(NC(=O)[C@@H]2C[C@@H](F)CN2C(=O)Cc2cnn[nH]2)c2cccc(-c3cnco3)c2)nc1F (single isomer, unassigned) [Compound 693] | nM | 56 |

// next entry
Input: # IC50 lookup, item CC(C)c1ccc(C(NC(=O)[C@@H]2C[C@@H](F)CN2C(=O)Cc2cnn[nH]2)C2CC2)cc1F (single isomer, unassigned) [Compound 652]
Output: 1200
